Target: human A3AR (Homo sapiens)
Construct: expressed in transfected cells
Test: LOPAC library primary screen: single concentration (10 μM) inhibition of 25 nM CA200645 binding, PHERAstar FS
Where a name gives a salt, the structure may show the parent alone.
READOUT TYPE: % 25 nM CA200645 binding (%)
Please respond with the number in % and leave the unit unwritten.

Worked examples, 6 compounds total:
| COMPOUND | TEST SYSTEM | UNIT OF MEASUREMENT | % 25 nM CA200645 binding |
| --- | --- | --- | --- |
| NCCCNCCSP(=O)(O)O | human A3AR (Homo sapiens) | % | 94.6 |
| O=C(O)CCC/C=C\C[C@@H]1[C@@H](/C=C/[C@H](O)C2Cc3ccccc3C2)[C@@H](F)C[C@@H]1O | human A3AR (Homo sapiens) | % | 75.0 |
| CCCOC(=O)c1c(-c2ccccc2)nc(CC)c(C(=O)SCC)c1CCC [MRS 1523, reference compound] | human A3AR (Homo sapiens) | % | 57.3 |
| CCCCCCCCCCCCCCCC(=O)OC(CC(=O)O)C[N+](C)(C)C.[Cl-] (racemic) [Palmitoyl-DL-Carnitine chloride] | human A3AR (Homo sapiens) | % | 82.9 |
| C[C@H](Cc1ccc(OCC(=O)[O-])cc1)NC[C@H](O)c1cccc(Cl)c1.[Na+] [BRL 37344 sodium] | human A3AR (Homo sapiens) | % | 98.2 |
| Cc1cc(NC(=O)Nc2ccc3c(ccn3C)c2)sn1 | human A3AR (Homo sapiens) | % | 88.1 |

Lookup: GET /values?readout=% 25 nM CA200645 binding&item= CCN(CC)C(=S)SSC(=S)N(CC)CC [Tetraethylthiuram disulfide]
Found: 88.1

Lookup: GET /values?readout=% 25 nM CA200645 binding&item= Br.C=CCN1CCc2cc(O)c(O)cc2C(c2ccccc2)C1 (racemic) [(±)-SKF 38393, N-allyl-, hydrobromide]
Found: 99.7

Lookup: GET /values?readout=% 25 nM CA200645 binding&item= CC[C@]1(O)C[C@@H]2CN(CCc3c([nH]c4ccccc34)[C@@](C(=O)OC)(c3cc4c(cc3OC)N(C)[C@H]3[C@@](O)(C(=O)OC)[C@H](OC(C)=O)[C@]5(CC)C=CCN6CC[C@]43[C@@H]65)C2)C1.O=S(=O)(O)O [Vinblastine sulfate salt]
Found: 98.2

Lookup: GET /values?readout=% 25 nM CA200645 binding&item= O=C(CCNNC(=O)c1ccncc1)NCc1ccccc1 [Nialamide]
Found: 96.8

Lookup: GET /values?readout=% 25 nM CA200645 binding&item= CN1C2CCCC1CC(NC(=O)c1nn(C)c3ccccc13)C2 (stereo not shown) [Granisetron hydrochloride]
Found: 100.4

Lookup: GET /values?readout=% 25 nM CA200645 binding&item= NS(=O)(=O)Cc1noc2ccccc12 [Zonisamide sodium]
Found: 98.6

###

Biological target: human A3AR (Homo sapiens, UniProt P0DMS8)
Construct: expressed in transfected cells
Sequence (P0DMS8 1-318): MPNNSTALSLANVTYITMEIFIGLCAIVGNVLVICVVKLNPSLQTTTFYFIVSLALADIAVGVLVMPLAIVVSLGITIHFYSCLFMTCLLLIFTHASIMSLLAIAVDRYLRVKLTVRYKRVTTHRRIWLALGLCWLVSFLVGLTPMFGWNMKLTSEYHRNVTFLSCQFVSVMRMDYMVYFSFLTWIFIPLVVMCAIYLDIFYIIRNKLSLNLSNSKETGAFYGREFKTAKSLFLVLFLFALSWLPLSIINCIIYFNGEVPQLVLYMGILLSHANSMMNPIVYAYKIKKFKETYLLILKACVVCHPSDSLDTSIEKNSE
Assay: LOPAC library primary screen: single concentration (10 μM) inhibition of 25 nM CA200645 binding, PHERAstar FS
Structures can show the parent of a compound that is named as a salt.
Attribute: % 25 nM CA200645 binding
Please respond with the number in % and leave the unit unwritten.

Worked examples, 4 compounds total:
| COMPOUND | % 25 nM CA200645 binding [%] |
| --- | --- |
| COC(=O)C1=CCCN(C)C1 [Arecoline hydrobromide] | 81.8 |
| CC[n+]1c(/C=C/C=C2/N(C)c3ccccc3C2(C)C)sc2ccccc21.[I-] [AC-93253 iodide] | 89.8 |
| COc1cc2nc(N3CCCN(C)CC3)nc(NC3CCN(Cc4ccccc4)CC3)c2cc1OC [BIX 01294 trihydrochloride hydrate] | 97.9 |
| O=C(/C=C/c1ccc(O)cc1)c1ccc(O)cc1O [Isoliquiritigenin] | 88.0 |

# ---- query compound ----
Lookup: GET /values?readout=% 25 nM CA200645 binding&item= O=[N+]([O-])c1ccc(CSc2ncnc3c2ncn3[C@@H]2O[C@H](CO)[C@@H](O)[C@H]2O)cc1 [S-(4-Nitrobenzyl)-6-thioinosine]
Found: 95.1

###

Molecular target: human A3AR (Homo sapiens, UniProt P0DMS8)
Construct: expressed in transfected cells
Sequence (P0DMS8 1-318): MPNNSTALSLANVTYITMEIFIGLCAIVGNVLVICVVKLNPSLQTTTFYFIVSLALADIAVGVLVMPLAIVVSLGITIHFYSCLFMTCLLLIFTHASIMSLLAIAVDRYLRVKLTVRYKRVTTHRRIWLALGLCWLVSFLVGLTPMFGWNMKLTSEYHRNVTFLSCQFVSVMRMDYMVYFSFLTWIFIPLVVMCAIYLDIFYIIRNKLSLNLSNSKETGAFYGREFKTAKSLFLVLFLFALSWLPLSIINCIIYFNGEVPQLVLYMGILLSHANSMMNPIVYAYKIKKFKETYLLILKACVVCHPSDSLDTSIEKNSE
Test: LOPAC library primary screen: single concentration (10 μM) inhibition of 25 nM CA200645 binding, PHERAstar FS
Counter-ions that a name gives are not always drawn.
READOUT TYPE: % 25 nM CA200645 binding (%)
Please respond with the number in % and leave the unit unwritten.

Worked examples, 6 compounds total:
| COMPOUND | TEST SYSTEM | OBSERVED |
| --- | --- | --- |
| CC(C)(CO)Cc1cc(C(C)(C)C)c(O)c(C(C)(C)C)c1 | human A3AR (Homo sapiens, UniProt P0DMS8) | 87.6 |
| O=C([O-])c1cc2cc(Cc3cccnc3)ccc2o1.[Na+] [Furegrelate sodium] | human A3AR (Homo sapiens, UniProt P0DMS8) | 89.9 |
| COc1ccc2cc([C@H](C)C(=O)[O-])ccc2c1.[Na+] [(-)-Naproxen sodium] | human A3AR (Homo sapiens, UniProt P0DMS8) | 97.8 |
| CC(NCCc1ccc(O)cc1)C(O)c1ccc(O)cc1 (centres unmarked) [Ritodrine hydrochloride] | human A3AR (Homo sapiens, UniProt P0DMS8) | 99.4 |
| [N-]=[N+]=Nc1ccc(C(=O)CSC[C@H](NC(=O)CC[C@H](N)C(=O)O)C(=O)NCC(=O)O)cc1 | human A3AR (Homo sapiens, UniProt P0DMS8) | 82.4 |
| CCN(CC)CCCCCCCCOC(=O)c1cc(OC)c(OC)c(OC)c1.Cl [TMB-8 hydrochloride] | human A3AR (Homo sapiens, UniProt P0DMS8) | 95.0 |

Lookup: GET /values?readout=% 25 nM CA200645 binding&item= CC(=O)N1CCN(c2ccc(OCC3COC(Cn4ccnc4)(c4ccc(Cl)cc4Cl)O3)cc2)CC1 (centres unmarked)
Found: 98.9

Lookup: GET /values?readout=% 25 nM CA200645 binding&item= C[N+](C)(C)CCOC(=O)CBr.[Br-] [Bromoacetylcholine bromide]
Found: 95.1

###

Molecular target: human A3AR (Homo sapiens, UniProt P0DMS8)
Construct: expressed in transfected cells
Test: LOPAC library primary screen: single concentration (10 μM) inhibition of 25 nM CA200645 binding, PHERAstar FS
Counter-ions that a name gives are not always drawn.
Attribute: % 25 nM CA200645 binding
Please respond with the number in % and leave the unit unwritten.

| COMPOUND | READOUT TYPE | UNIT OF MEASUREMENT | OBSERVED |
| --- | --- | --- | --- |
| CN[C@@H]1C[C@@H](c2ccc(Cl)c(Cl)c2)c2ccccc21 [Indatraline hydrochloride] | % 25 nM CA200645 binding | % | 103.0 |
| COc1ccc2c(c1)c(CC(=O)O)c(C)n2Cc1ccc(Cl)cc1 | % 25 nM CA200645 binding | % | 97.1 |
| CCCCCCC(=O)OC1CC(C)(C)NC(C)(C)C1.Cl [TMPH hydrochloride] | % 25 nM CA200645 binding | % | 95.1 |
| CC(C)(C)C(=O)Oc1ccc(S(=O)(=O)Nc2ccccc2C(=O)NCC(=O)[O-])cc1.[Na+] [Sivelestat sodium salt hydrate] | % 25 nM CA200645 binding | % | 96.6 |

# ---- query compound ----
Lookup: GET /values?readout=% 25 nM CA200645 binding&item= CCCCCCC(C(C)O)n1cnc2c(N)ncnc21.Cl (centres unmarked)
Found: 80.7
